experiment: Bioavailability in rat; format: ADME, organism-based; conditions: in vivo
The entries below are paired with their reported bioavailability.
value.type: bioavailability

[
  {
    "chem.smiles": "Cc1nc(C)c(-c2ccc(-c3ccc([C@H](C)C(=O)O)cc3Cl)c(F)c2)nc1C(N)=O",
    "value.type": "bioavailability",
    "assay.value": "100%"
  },
  {
    "chem.smiles": "Cc1nc(C)c(-c2ccc(-c3ccc(CC(=O)O)cc3Cl)c(Cl)c2)nc1C(N)=O",
    "value.type": "bioavailability",
    "assay.value": "100%"
  },
  {
    "chem.smiles": "Cc1nc(C)c(-c2ccc(-c3ccc(CC(=O)O)cc3Cl)cc2)nc1C(N)=O",
    "value.type": "bioavailability",
    "assay.value": "88%"
  },
  {
    "chem.smiles": "Cc1nc(C)c(-c2ccc(-c3ccc([C@H](C)C(=O)O)cc3Cl)cc2)nc1C(N)=O",
    "value.type": "bioavailability",
    "assay.value": "98%"
  }
]
